Assay: Half life in human liver microsomes
Type: ADME, microsome
Classification field: enter yes for half-life values not below 10 min, no for values below it.

Exercise: I'd appreciate it if you could say whether CCCNC(=O)C1CCN(C(=O)c2cc3sc(Br)cc3n2Cc2ccc(OC)cc2)CC1 has half-life at least equal to 10 min.
Solution: no

Exercise: I'd appreciate it if you could say whether COc1ccc(Cn2c(C(=O)N3CCC(C(=O)NC(C)C)CC3)cc3sc(Br)cc32)cc1 has half-life at least equal to 10 min.
Solution: no

----------
Assay: Selectivity index, ratio of CC50 for HEK293T cells to EC50 for full length Gaussia princeps Gluc-tagged Chikungunya virus IMT
Format: toxicity
Settings: human, read-out: Ratio CC50/EC50
Endpoint label: selectivity ratio
Form: value (number only, do not type unit).

Worked cases, answers included:
INSERT INTO assay_data (chemical_structure, endpoint_label, reported_measurement) VALUES
  ('CCCNC(=O)C1CCN(C(=O)c2cc3ncsc3n2Cc2ccc(OC)cc2)CC1', 'selectivity ratio', 4.5),
  ('CCCNC(=O)C1CCN(C(=O)c2cc3sccc3n2Cc2ccc(OC)cc2)CC1', 'selectivity ratio', 2.7),
  ('CCCNC(=O)C1CCN(C(=O)c2cc(Br)cn2Cc2ccc(OC)cc2)CC1', 'selectivity ratio', 2.6);

Exercise: Quick one: selectivity ratio for CCCNC(=O)C1CCN(C(=O)c2cc3nc(Br)sc3n2Cc2ccc(OC)cc2)CC1 ?
Solution: 21
